Biological target: UniProt:P12527
Sequence (P12527 whole entry): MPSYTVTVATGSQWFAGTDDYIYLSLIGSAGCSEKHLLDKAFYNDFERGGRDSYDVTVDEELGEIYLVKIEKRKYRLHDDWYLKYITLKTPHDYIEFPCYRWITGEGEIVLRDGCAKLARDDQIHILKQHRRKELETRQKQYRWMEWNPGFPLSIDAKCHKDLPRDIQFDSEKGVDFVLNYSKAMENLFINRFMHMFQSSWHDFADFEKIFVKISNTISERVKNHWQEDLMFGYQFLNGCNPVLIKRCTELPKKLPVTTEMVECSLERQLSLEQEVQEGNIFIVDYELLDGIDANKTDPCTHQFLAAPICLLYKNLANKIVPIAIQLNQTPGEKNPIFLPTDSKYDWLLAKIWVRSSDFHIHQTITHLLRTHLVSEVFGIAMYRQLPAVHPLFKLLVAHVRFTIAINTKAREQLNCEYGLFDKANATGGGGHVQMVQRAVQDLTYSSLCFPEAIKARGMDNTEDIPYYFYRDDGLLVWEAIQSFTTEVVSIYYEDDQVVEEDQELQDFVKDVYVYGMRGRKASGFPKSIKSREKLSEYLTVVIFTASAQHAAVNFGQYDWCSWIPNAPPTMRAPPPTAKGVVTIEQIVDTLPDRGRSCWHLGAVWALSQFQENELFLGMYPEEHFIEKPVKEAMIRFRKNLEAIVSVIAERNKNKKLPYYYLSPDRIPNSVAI
Assay: ARBL whole cell 5-lipoxygenase assay (LTB4 formation in RBL-1 cells, A23187-stimulated)
Conditions: inhibition of LTB4 formation, RBL-1 whole cells
Please provide measured pIC50 for the entries that follow.
Bear in mind: pIC50 is minus log10 of a mol/L concentration; give just that figure.

Exam item: Send back UniProt:P12527 pIC50 of `Cc1ccc(Cl)c(Nc2ccccc2-c2nsc(NC#N)n2)c1Cl` only.
Marked response: 5.21

Exam item: Enter measured pIC50, system UniProt:P12527, for the compound shown: `Cc1ccc(Cl)c(Nc2ccccc2-c2noc(=O)[nH]2)c1Cl`
Marked response: 5.64
